# System: HEK293
# assay_text: Cytotoxic Profiling of Annotated Libraries Using Quantitative High-Throughput Screening (AID 1296008); also: nearly all actives have a fitted effect of over 60% in size
# assay_context: Five cell lines viability, CellTiter-Glo ATP luminescence, 48-72 h
Inconclusive results are not listed. Activity calls are given as the source filed them. Calls follow the shape of the dose curve; as a rule, active = well fitted inhibition curve with a large enough effect; inconclusive = small, poorly fitted or top-dose-only effect; inactive = flat fitted curve, though single readings scatter.
Your response should consist of one outcome taken from t = active, f = inactive

# example entries with known answers
COc1ccc(-c2nc(N3CCOCC3)c3sc(CN(C)c4ncc(C(=O)NO)cn4)cc3n2)cn1; t
CCOC(=O)C1=C(N)Oc2ccc(Br)cc2C1C(C#N)C(=O)OCC (stereo not given); f

# fetch the recorded call for N[C@H](CSC(c1ccccc1)(c1ccccc1)c1ccccc1)C(=O)O here
t

Can you look up the reported call for Oc1ccc(C2=Cc3ccc(O)cc3OC2)cc1 for me?
t

// return assay outcome for CC(C)n1cnc2c(NCCCCCCNC(=O)OC(C)(C)C)nc(NCCO)nc21
t

Call for entry C[C@H](NC(=O)c1sccc1OCc1ccc(Cl)cc1)c1ccccc1 :
t

Please state the recorded outcome for this compound: O=C(O)c1ccc(-c2cc3cccnc3c(-c3ccc4nonc4c3)n2)cc1
t

What classification did Clc1cc(Cl)cc(CNc2ncncc2-c2ccc3c(c2)OCO3)c1 end up with in this test?
t

Please let me know the test result on file for C[N+]1(C)[C@@H]2CC(OC(=O)[C@H](CO)c3ccccc3)C[C@H]1[C@H]1O[C@@H]12 (stereo not given in full) .
f

Called result for CNC(=O)c1ccccc1Sc1ccc2c(C=Cc3ccccn3)n[nH]c2c1
t

----------
# assay_text: qHTS for Inhibitors of ATXN expression: Validation (AID 588378); also: % is scaled to controls: 0 for no effect and ±100 for the full control effect; nearly all actives have a fitted effect of over 75% in size
# assay_context: cell-based ATXN2 expression reporter assay, luminescence; series mostly up to 57.1 µM
Inconclusive results are not listed. The source made the active and inactive calls. Calls come from the whole dose curve; as a rule, active = well fitted inhibition curve with a large enough effect; inconclusive = small, poorly fitted or top-dose-only effect; inactive = no such curve, though single readings can be large or run the other way.
readout_name: Potency

O=c1cc(-c2ccc(O)cc2)oc2cc(O)cc(O)c12; inactive
Cc1cccc(C)c1OCC(C)N (stereo unspecified); inactive
CCN(CC)C(=O)c1ccc(O)c(OC)c1; inactive
CC(C)NCC(O)COc1cccc2[nH]ccc12 (stereo unspecified); inactive
O=C(O)CCc1nc(-c2ccccc2)c(-c2ccccc2)o1; inactive

Fill in the blank: the reported Potency of CC(=O)O[C@]1(C(C)=O)CC[C@H]2[C@@H]3C=C(Cl)C4=CC(=O)[C@@H]5C[C@@H]5[C@]4(C)[C@H]3CC[C@@]21C is ____.
inactive

Field request: Potency | item: CC(=O)c1ccc(S(=O)(=O)NC(=O)NC2CCCCC2)cc1
inactive

----------
# assay_text: Quantitative High-Throughput drug screen in 47 multiple myeloma cell lines against the NCATS MIPE library collection: INA6_PLB cell viability assay (AID 1918965; also: nearly all actives have a fitted effect of over 55% in size; also: potency is read from the fitted curve at half-maximal effect)
# assay_context: INA6 myeloma viability, CellTiter-Glo ATP luminescence, 48 h; series mostly up to 45.8 µM
Records with an inconclusive call do not appear. The source made the active and inactive calls. The call rests on the fitted dose curve; in most records, active means well fitted cell-killing curve with a large enough effect; inconclusive means small, poorly fitted or top-dose-only effect, or effect the other way; inactive means no such curve, though single readings can be large or run the other way.
readout_name: Potency

Past entries and their recorded results:
C=C1C(=O)OC(CCCCCCCC)C1C(=O)O (stereo not given); 18.7 µM (active)
O=C(N[C@@H](c1ccccc1)[C@@H]1CCCCN1)c1cccc(C(F)(F)F)c1Cl; inactive
Nc1ncnc2c1ncn2[C@@H]1O[C@@H](CO)[C@H](O)[C@H]1O; inactive
CC1(C)O[C@H]2C[C@@H]3[C@H]4CCC5=CC(=O)C=C[C@]5(C)[C@@]4(F)[C@@H](O)C[C@]3(C)[C@]2(C(=O)CO)O1; inactive

Okay, now this molecule:
What measured Potency goes with COc1ccc2cc(-c3nc(-c4ccc(S(C)=O)cc4)[nH]c3-c3ccncc3)ccc2c1 (stereo not given) ?
14.8 µM (active)

----------
# assay_text: Quantitative High-Throughput drug screen in 47 multiple myeloma cell lines against the NCATS MIPE library collection: OCIMY5_PLB cell viability assay (AID 1918988); also: nearly all actives have a fitted effect of over 65% in size; also: potency is read from the fitted curve at half-maximal effect
# assay_context: OCI-MY5 myeloma viability, ATP luminescence, 48 h; series mostly up to 45.8 µM
Inconclusive results are not listed. The source made the active and inactive calls. Calls come from the whole dose curve; as a rule, active = well fitted cell-killing curve with a large enough effect; inconclusive = small, poorly fitted or top-dose-only effect, or effect the other way; inactive = no such curve, though single readings can be large or run the other way.
readout_name: Potency

CON=C(C(=O)N[C@@H]1C(=O)N2C(C(=O)OCOC(=O)C(C)(C)C)=C(C=Cc3scnc3C)CS[C@H]12)c1csc(N)n1; inactive
CC(C)(C(=O)NCC(F)(F)C(F)(F)F)C(=O)N[C@@H]1C(=O)Nc2ccccc2-c2ccccc21; inactive
O=C(O)c1cc(O)c2c(c1)C(=O)c1cccc(O)c1C2=O; 48.1 µM (active)

----------
# assay_text: qHTS profiling for inhibitors of Plasmodium falciparum (DD2) proliferation (AID 743323)
# assay_context: lower = more inhibition; at 28.7 µM (top of the series)
readout_name: activity, percent of control (%)
Expressed in %, but write only the number.

CC(=O)N(C)C1(c2ccccc2)CCN(CCC[C@]2(c3ccc(Cl)c(Cl)c3)CCCN(C(=O)c3ccccc3)C2)CC1; -0.455
CN1CCN(CCOc2cc(OC3CCOCC3)c3c(Nc4c(Cl)ccc5c4OCO5)ncnc3c2)CC1; 1.7
O=C(Nc1cc(Cl)cc2c1[nH]c1cnccc12)c1cccnc1; 7.04

Look up activity, percent of control: O=C(O)c1ccc(-c2cc3cccnc3c(-c3ccc4nonc4c3)n2)cc1
92.9

Look up activity, percent of control: COc1ccc(C2CC(c3ccccc3)=NN2c2ccc(S(N)(=O)=O)cc2)cc1 (stereo not drawn)
40.1

Return reported activity, percent of control; argument: COc1cc2nc(-c3ccc(N4CCN(C)CC4)cc3)nc(NCCN3CCOCC3)c2cc1OC
-0.313

What value of activity, percent of control has been recorded for this entry: CC(C)(C(=O)NCC(F)(F)C(F)(F)F)C(=O)N[C@@H]1C(=O)Nc2ccccc2-c2ccccc21
4.91

May I ask what activity, percent of control has been recorded for CC(C)(C)C(=O)Oc1ccc2c(c1)nc(NC(=O)c1cccc([N+](=O)[O-])c1)n2CCCO ?
82

Return reported activity, percent of control; argument: CC[C@H]1OC(=O)[C@H](C)[C@@H](O[C@H]2C[C@@](C)(OC)[C@@H](O)[C@H](C)O2)[C@H](C)[C@@H](O[C@@H]2O[C@H](C)C[C@H](N(C)C)[C@@H]2O)[C@](C)(O)C[C@@H](C)CN(C)[C@H](C)[C@@H](O)[C@]1(C)O
19.2

What value of measured activity, percent of control is listed for COc1cc(Nc2ncc(F)c(Nc3ccc4c(n3)NC(=O)C(C)(C)O4)n2)cc(OC)c1OC ?
89.1

Query: activity, percent of control; subject: CC(C)(C)c1cc(C(=O)O)c(NC(=O)Nc2ccc3[nH]ncc3c2)s1
95.5

----------
# study_system: Peroxisome proliferator-activated receptor gamma (Homo sapiens) (UniProt P37231)
# Sequence (P37231 whole entry, looked up): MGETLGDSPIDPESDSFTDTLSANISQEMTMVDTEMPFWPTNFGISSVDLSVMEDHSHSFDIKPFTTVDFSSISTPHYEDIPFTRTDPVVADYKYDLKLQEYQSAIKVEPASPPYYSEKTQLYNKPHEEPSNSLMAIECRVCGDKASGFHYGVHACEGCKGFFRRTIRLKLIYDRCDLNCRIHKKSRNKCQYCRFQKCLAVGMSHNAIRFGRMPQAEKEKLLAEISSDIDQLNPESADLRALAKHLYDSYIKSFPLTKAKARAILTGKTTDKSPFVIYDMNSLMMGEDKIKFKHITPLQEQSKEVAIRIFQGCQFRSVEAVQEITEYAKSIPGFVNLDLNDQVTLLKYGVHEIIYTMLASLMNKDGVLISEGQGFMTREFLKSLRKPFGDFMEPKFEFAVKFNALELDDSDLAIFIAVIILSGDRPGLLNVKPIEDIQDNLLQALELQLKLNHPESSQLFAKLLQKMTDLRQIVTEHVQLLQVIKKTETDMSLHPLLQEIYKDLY
# assay_text: qHTS assay for small molecule antagonists of peroxisome proliferator-activated receptor gamma signaling (AID 588537)
# assay_context: HEK293 PPARg-UAS-bla, beta-lactamase ratio, antagonist mode; series mostly up to 76.8 µM
Inconclusive results are not listed. The source made the active and inactive calls. Calls follow the shape of the dose curve; as a rule, active = well fitted inhibition curve with a large enough effect in the signal ratio, with a control signal flat (not every such curve was filed as active); inconclusive = small, poorly fitted or top-dose-only effect, or effect the other way, or a change in a side signal; inactive = flat fitted curve, though single readings scatter; the % refers to the signal ratio.
The reply should be one of these categories: active, inactive

Example cases with answers are listed next.
O=c1c(-c2ccc(O)cc2)coc2cc(O)ccc12; inactive
O=C(O)Cc1cccc2ccccc12; inactive
O=c1cc(-c2ccc(O)cc2)oc2cc(O)cc(O)c12; active
O=c1c(O)c(-c2ccc(O)cc2)oc2cc(O)cc(O)c12; inactive
O=C1NC(=O)C(c2ccccc2)(c2ccccc2)N1; inactive
CC/C(=C(\c1ccccc1)c1ccc(OCCN(C)C)cc1)c1ccccc1; inactive

Okay, next one:
In this assay, the call recorded for CCCNC(=O)NS(=O)(=O)c1ccc(Cl)cc1 was what?
inactive

----------
# Test system: TAB109
# assay_text: qHTS profiling for inhibitors of Plasmodium falciparum proliferation (AID 504749);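 also: 0% = DMSO vehicle and full inhibition = artemisinin control; nearly all actives have a fitted effect of over 60% in size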
# assay_context: P. falciparum in erythrocytes, SYBR Green DNA, 72 h; series mostly up to 28.7 µM
Inconclusive results are not listed. Active and inactive are the calls of the source. Calls come from the whole dose curve; as a rule, active = well fitted inhibition curve with a large enough effect; inconclusive = small, poorly fitted or top-dose-only effect; inactive = flat fitted curve, though single readings scatter.
readout_name: outcome

Examples with their reported outcome follow.
O=c1[nH]cnc2c1ncn2[C@H]1CC[C@@H](CO)O1; inactive
O=C(NCCN1CCOCC1)c1ccc(Cl)cc1; inactive
CCN1CCC[C@H]1CNC(=O)c1cc(S(N)(=O)=O)ccc1OC; inactive
O=C1Nc2ccc(Cl)cc2C(C#CC2CC2)(C(F)(F)F)O1 (stereo not given); inactive
CC1(C)O[C@H]2C[C@@H]3[C@H]4CCC5=CC(=O)C=C[C@]5(C)[C@@]4(F)[C@@H](O)C[C@]3(C)[C@]2(C(=O)CO)O1; inactive
COc1ccccc1N1CCN(CCCNc2cc(=O)n(C)c(=O)n2C)CC1; inactive
NC(N)=Nc1nc(CSCC/C(N)=N/S(N)(=O)=O)cs1; inactive
C[C@@H](O)[C@H]1C(=O)N2C(C(=O)O)=C(S[C@@H]3CN[C@H](C(=O)N(C)C)C3)[C@H](C)[C@H]12; inactive

Missing value: outcome, TAB109, entry CCN(CC)C(=O)c1ccc(O)c(OC)c1 . Fill in?
inactive

Lab note: need outcome with TAB109 for entry O=C1NC(=O)C(c2ccccc2)(c2ccccc2)N1 , please look it up.
inactive

Where do these numbers come from? They come from PubChem BioAssay (NCATS).
